These entries and their values trace back to patent US20240400718A1.

system-under-test: #264: VH-L1-VL CAR-T
test-name: flow cytometry on CAR-T cells; PE-labeled secondary antibody; PE-positive cells / total cells

binder	Reactivity (%)
2D12-B12 (antibody, V domains shown) VH: EVKLVESGGGLVQPGRSLKLSCAASGFNFNDYWMGWVRQAPGKGLEWIGEIKKDSSIINYIPSLKDKFTISRDNAQNTLYLQMSKLGSEDTAIYYCARGVEYYGYHYWGQGTLVTVSS VL: DIVMTQSPSSLAVSAGETVTINCKSSQSLLYSGNQKNYLAWYQQKPGQSPKLLIYWASTRHSGVPARFIGSGSGSDFTLTISSVQAEDLAIYCCQQYYDIPYTFGAGTKLELK	11.1
3A4-A10-7 (antibody, V domains shown) VH: QVQLQQSGAALVKPGASVKMSCKASGYTFTDCWVSWVKQSHGKSLEWIGEIHPNSGTTNFNEKFKGKATLTVDKSTSTAYMELSRLTSEDSAIYYCTRAYGGYPFDYWGQGVMVTVSS VL: ADLVLTQPKSVSTSLESTVKLSCKLNSGNIGRYYMHWYQQHEGRSPTNMIYRDDKRPDGVPDRFSGSIDSSSNSAFLTINNVQTEDEAIYFCHSYDSSINIFGGGTKLTVLG	36.7
3E7-C1 (antibody, V domains shown) VH: QVQMKESGPGLVQPSETLSLTCTVSGFSLTSYGVSWVRQPSGKGPEWMGRLWNDGDTAYNSALKSRLSISRDTSKNQVFLKMNSLQTDDTGTYYCTTMNGYKDYWGQGVMVTVSS VL: TSYELIQPPSASVTLGNTVSLTCVGDELPKRYAYWYQQKPDQSIVRVIYEDSKRPSGISDRFSGSSSGTTATLTIRDAQAEDEADYYCHSTYSDDKLRIFGGGTKLTVLG	0
4B9-B11 (antibody, V domains shown) VH: QMQLKESGPGLVQPSETLSLTCTVSGFSLTSYSVSWVRQPSGKGPEWMGRMYYDGDTAYNSALKSRLSISRDTSKNQVFLKMNSLQTDDTGTYYCTRSIGAEDYWGQGVMVTVSS VL: TSYELIQPPSASVTLGNTVSLTCVGDELPKRYAYWYQQKPDQSIVRVIYEDSKRPSGISDRFSGSSSGTTATLTIRDAQNEDEADYYCHSTYSDDKLRIFGGGTKLTVLG	0
